Recorded values, source ChEMBL document CHEMBL1129453.

# system_tested: D(2) dopamine receptor (Bos taurus)
# Sequence (P20288 whole entry): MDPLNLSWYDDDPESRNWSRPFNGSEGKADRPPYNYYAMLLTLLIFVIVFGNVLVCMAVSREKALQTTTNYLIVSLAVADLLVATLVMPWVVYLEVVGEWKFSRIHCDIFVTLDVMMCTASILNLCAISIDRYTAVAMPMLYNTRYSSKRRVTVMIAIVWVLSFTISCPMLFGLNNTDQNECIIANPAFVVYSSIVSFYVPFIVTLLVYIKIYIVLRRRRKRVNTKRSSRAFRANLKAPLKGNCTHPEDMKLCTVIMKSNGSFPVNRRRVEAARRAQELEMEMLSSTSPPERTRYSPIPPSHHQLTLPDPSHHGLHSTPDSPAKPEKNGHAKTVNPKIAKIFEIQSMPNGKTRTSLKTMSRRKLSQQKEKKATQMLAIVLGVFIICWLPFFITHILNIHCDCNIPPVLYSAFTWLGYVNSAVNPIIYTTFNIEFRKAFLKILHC
# test_description: Displacement of [3H]SDZ-205-501 from Dopamine receptor D2 in calf caudate nucleus.
measurement_name: IC50 (µM)
Numbers only; they are read as µM.

CCCN1CCCCC12COc1cccc(OC)c1C2 (centres undefined)
14.7
COc1cccc2c1CC1(CCCN1CCCCN1C(=O)CC3(CCCC3)CC1=O)CO2 (single isomer, unassigned; (-))
11.3
COc1cccc2c1CC1(CCCCN1CCCCN1C(=O)CC3(CCCC3)CC1=O)CO2 (centres undefined)
2.84

Lab note: next molecule to report on.
Q) Which IC50 value is on record for CCCN1CCCC12COc1cccc(O)c1C2 (centres undefined) ?
A) 71.4
